target-desc: T1, His-cynomolgus monkey LIGHT (cynomolgus monkey)
T1 construct: also called His-cynoLIGHT
T1 chain: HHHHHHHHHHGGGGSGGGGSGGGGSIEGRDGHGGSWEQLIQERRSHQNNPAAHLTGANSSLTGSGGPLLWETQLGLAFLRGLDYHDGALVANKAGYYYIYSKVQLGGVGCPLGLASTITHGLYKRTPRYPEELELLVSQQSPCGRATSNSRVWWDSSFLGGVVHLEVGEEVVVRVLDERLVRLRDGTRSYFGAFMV
assay-overview: ELISA, His-cynoLIGHT coated
Please go through the items and note down their EC50.
// units = pM; emit number, no label

Entry hum_LT-m37-11 (antibody, human IgG4, V domains shown, humanized from LT-m37) VH: QVQLVQSGAEVKKPGASVKVSCKASGYSFTGYFINWVRQAPGQGLEWIGRIYPYNVNTFYNQNFKGRATMTADKSTSTAYMELSSLRSEDTAVYYCGRGTHYYGSSGAMDYWGQGTLVTVSS VL: EIVLTQSPATLSVSPGERATLSCKASQNVGTAVAWYQQKPGQSPRLLIYSASNRYTGIPARFSGSGSGTEFTLTISSLQSEDFAVYYCQQYSSYPYTFGGGTKVEIK — recorded EC50 = 49.4

Entry hum_LT-m37-9 (antibody, human IgG4, V domains shown, humanized from LT-m37) VH: QVQLVQSGAEVKKPGASVKVSCKASGYSFTGYFINWVRQAPGQSLEWIGRIYPYNVNTFYNQNFKGRATLTADKSTSTAYMELSSLRSEDTAVYYCGRGTHYYGSSGAMDYWGQGTLVTVSS VL: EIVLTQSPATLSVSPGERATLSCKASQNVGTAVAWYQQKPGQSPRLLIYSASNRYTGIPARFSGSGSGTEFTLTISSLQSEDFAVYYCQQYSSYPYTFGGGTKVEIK — recorded EC50 = 47.8

Entry hum_LT-m37-10 (antibody, human IgG4, V domains shown, humanized from LT-m37) VH: QVQLVQSGAEVKKPGASVKVSCKASGYSFTGYFINWVRQAPGQGLEWIGRIYPYNVNTFYNQNFKGRATLTADKSTSTAYMELSSLRSEDTAVYYCGRGTHYYGSSGAMDYWGQGTLVTVSS VL: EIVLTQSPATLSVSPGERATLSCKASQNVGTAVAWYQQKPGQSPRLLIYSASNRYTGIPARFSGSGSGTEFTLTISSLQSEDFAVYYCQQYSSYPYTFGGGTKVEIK — recorded EC50 = 46.3
